Target or system JAK2 (Homo sapiens, UniProt O60674); recorded quantity Kd.

Illustrative cases are given below, each with its answer.
compound	tested-system	Kd
NC(=O)c1c(Nc2ccc(CN3CCCCC3)cc2)n[nH]c1NCc1ccc(O)cc1 [reference compound]	JAK2 (Homo sapiens, UniProt O60674)	< 50 nM
Cc1cc(CNc2[nH]nc(Nc3ccc(N4CCOCC4=O)cc3)c2C(N)=O)cc(C)c1O	JAK2 (Homo sapiens, UniProt O60674)	> 1000 nM
Cc1cc(CNc2[nH]nc(Nc3ccc(CN4CCOCC4)cc3)c2C(N)=O)cc(C)c1O	JAK2 (Homo sapiens, UniProt O60674)	100 to 1000 nM
Cc1cc(Nc2n[nH]c(NCc3cc(C)c(O)c(C)c3)c2C(N)=O)cnc1N1CCN(C)CC1	JAK2 (Homo sapiens, UniProt O60674)	> 1000 nM

Reported Kd ( Cc1cc(CNc2[nH]nc(Nc3ccc(-n4cccc4)cc3)c2C(N)=O)cc(C)c1O ) = > 1000 nM

----------
target: JAK3 (Homo sapiens)
Sequence (P52333 811-1124 limits assumed): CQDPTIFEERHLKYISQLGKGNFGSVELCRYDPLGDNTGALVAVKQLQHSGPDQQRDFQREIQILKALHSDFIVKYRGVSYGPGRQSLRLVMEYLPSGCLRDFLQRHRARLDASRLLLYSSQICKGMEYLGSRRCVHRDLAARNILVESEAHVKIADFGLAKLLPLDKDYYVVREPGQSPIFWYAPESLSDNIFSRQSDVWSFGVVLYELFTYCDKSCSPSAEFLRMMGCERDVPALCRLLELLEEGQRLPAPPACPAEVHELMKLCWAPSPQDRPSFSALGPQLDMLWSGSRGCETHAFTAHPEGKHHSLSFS
Each entry below carries its reported Kd.

molecule	tested-system	Kd
Cc1cc(CNc2[nH]nc(Nc3ccc(CN4CCCC4)cc3)c2C(N)=O)cc(C)c1O	JAK3 (Homo sapiens)	> 1000 nM
CN1CCN(c2ccc(Nc3n[nH]c(NCc4ccc(O)cc4)c3C(N)=O)cc2)CC1 [reference compound]	JAK3 (Homo sapiens)	< 50 nM

Turning to the following molecule.
The molecule listed as NC(=O)c1c(Nc2ccc(N3CCS(=O)(=O)CC3)cc2)n[nH]c1NCc1ccc(O)cc1 [reference compound] has a reported Kd of < 50 nM

----------
Recorded Kd, one value per entry.
target: JAK3 (Homo sapiens)

See these solved cases before continuing.
compound	Kd
NC(=O)c1c(Nc2ccc(N3CCN(Cc4ccccc4)CC3)cc2)n[nH]c1NCc1ccc(O)cc1 [reference compound]	< 50 nM
Cc1cc(Nc2n[nH]c(NCc3cc(C)c(O)c(C)c3)c2C(N)=O)ccc1N1CCOCC1 [Compound 8]	> 1000 nM
NC(=O)c1c(Nc2ccc(N3CCC(N4CCCC4)CC3)nc2)n[nH]c1NCc1ccc(O)cc1 [reference compound]	< 50 nM

Tested system JAK3 (Homo sapiens); Kd recorded for NC(=O)c1c(Nc2ccc(N3CCN(c4ncccn4)CC3)cc2)n[nH]c1NCc1ccc(O)cc1 [reference compound] was < 50 nM

The observed Kd for NC(=O)c1c(Nc2ccc(CN3CCOCC3)cc2)n[nH]c1NCc1ccc(O)cc1 [reference compound] when tested with JAK3 (Homo sapiens) stands at < 50 nM

----------
# JAK3 (Homo sapiens): Kd values follow

Below: 2 compounds and their reported Kd.
compound	Kd
Cc1cc(CNc2[nH]nc(Nc3ccc(F)cc3)c2C(N)=O)cc(C)c1O	> 1 µM
Cc1cc(Nc2n[nH]c(NCc3cc(C)c(O)c(C)c3)c2C(N)=O)ccc1N1CCN(C)CC1	> 1 µM

Next:
Record NC(=O)c1c(Nc2ccc(-c3cnco3)cc2)n[nH]c1NCc1ccc(O)cc1 [reference compound] has JAK3 (Homo sapiens) Kd equal to < 0.05 µM

----------
Below are Kd values measured for JAK3 (Homo sapiens, UniProt P52333).

molecule	measured-quantity	endpoint-value
CC(C)N1CCN(c2ccc(Nc3n[nH]c(NCc4ccc(O)cc4)c3C(N)=O)cc2Cl)CC1 [reference compound]	Kd	< 50 nM
NC(=O)c1c(Nc2ccc(N3CCC(Cl)CC3)cc2)n[nH]c1NCc1ccc(O)cc1 [reference compound]	Kd	< 50 nM

Now look at this one.
Readout Kd for Cc1cc(CNc2[nH]nc(Nc3ccc(N4CCC(Cl)CC4)cc3)c2C(N)=O)cc(C)c1O , test system JAK3 (Homo sapiens, UniProt P52333), was > 1000 nM

----------
The reader will find reported pKd values listed item by item below.
target: JAK3 (Homo sapiens); construct: made in house; host or cells: E. coli BL21-derived host (T7 phage) or HEK-293; experiment: Kinase competition binding assay (Kd, qPCR readout), JAK3; conditions: Kd class, JAK3; read-out: JAK3 Activity Level
pKd: −log10 of the molar value.

compound	pKd
Cc1cc(Nc2n[nH]c(NCc3cc(C)c(O)c(C)c3)c2C(N)=O)cnc1N1CCN(C(C)C)CC1	< 6.00
NC(=O)c1c(Nc2cnc(N3CCOCC3)c(Cl)c2)n[nH]c1NCc1ccc(O)cc1 [reference compound]	7.00 to 7.30
Cc1cc(Nc2n[nH]c(NCc3ccc(O)cc3)c2C(N)=O)cnc1N1CCOCC1 [reference compound]	> 7.30

Quick note, pKd for NC(=O)c1c(Nc2ccc(N3CCOCC3)c(F)c2)n[nH]c1NCc1ccc(O)cc1 [reference compound] landed at > 7.30

Value of measured pKd for the entry NC(=O)c1c(Nc2ccc3[nH]ncc3c2)n[nH]c1NCc1ccc(O)cc1 [reference compound] : > 7.30

Data point: Cc1cc(CNc2[nH]nc(Nc3ccc(N4CCN(C(C)C)CC4)cc3)c2C(N)=O)cc(C)c1O ; pKd = 6.00 to 7.00

According to the records, this compound NC(=O)c1c(Nc2ccc(-c3ccccn3)cc2)n[nH]c1NCc1ccc(O)cc1 [reference compound] displays pKd of > 7.30

get_value(item= Cc1cc(CNc2[nH]nc(Nc3ccc(N4CCN(Cc5ccccc5)CC4)cc3)c2C(N)=O)cc(C)c1O , readout=pKd) returns < 6.00

The measured pKd associated with CC(C)(C)c1ccc(Nc2n[nH]c(NCc3ccc(O)cc3)c2C(N)=O)cc1 [reference compound] reads 7.00 to 7.30

// pKd lookup, compound = NC(=O)c1c(Nc2ccc(N3CCOCC3=O)cc2)n[nH]c1NCc1ccc(O)cc1 [reference compound] , result: > 7.30

Field pKd (entry C[C@@H]1CN(c2ccc(Nc3n[nH]c(NCc4ccc(O)cc4)c3C(N)=O)cc2)C[C@H](C)O1 [reference compound] ) reads > 7.30

NC(=O)c1c(Nc2ccc(N3CCOCC3)nc2)n[nH]c1NCc1ccc(O)cc1 [reference compound] yielded pKd of > 7.30

Recorded result, Cc1cc(Nc2n[nH]c(NCc3ccc(O)cc3)c2C(N)=O)cnc1N1CCN(C(C)C)CC1 [reference compound] , pKd: > 7.30

Lab note: measured pKd of NC(=O)c1c(Nc2ccc(N3CCN(C(=O)N4CCCC4)CC3)cc2)n[nH]c1NCc1ccc(O)cc1 [reference compound] was > 7.30

Item: NC(=O)c1c(Nc2ccc(NC(=O)c3ccc(F)cc3)cc2)n[nH]c1NCc1ccc(O)cc1 [reference compound] | pKd: > 7.30

The reported value for NC(=O)c1c(Nc2ccc(F)cc2)n[nH]c1NCc1ccc(O)cc1 [reference compound] in terms of pKd is > 7.30

Briefly, pKd measured for NC(=O)c1c(Nc2ccc(NC(=O)c3ccc(C(F)(F)F)cc3)cc2)n[nH]c1NCc1ccc(O)cc1 [reference compound] : 6.00 to 7.00

// pKd value for Cc1cc(CNc2[nH]nc(Nc3ccc4[nH]ncc4c3)c2C(N)=O)cc(C)c1O : < 6.00

Record summary for COc1cccc(Nc2n[nH]c(NCc3ccc(O)cc3)c2C(N)=O)c1 [reference compound] : reported pKd = > 7.30

The measured pKd associated with CC(C)N1CCN(c2ccc(Nc3n[nH]c(NCc4ccc(O)cc4)c3C(N)=O)cc2)CC1 [reference compound] reads 7.00 to 7.30

# compound COc1ccccc1C(=O)Nc1ccc(Nc2n[nH]c(NCc3ccc(O)cc3)c2C(N)=O)cc1 [reference compound] ; its pKd = > 7.30

Reported pKd of NC(=O)c1c(Nc2ccc(N3CCOCC3)c(Cl)c2)n[nH]c1NCc1ccc(O)cc1 [reference compound] : > 7.30

Query COc1cccc(C(=O)Nc2ccc(Nc3n[nH]c(NCc4ccc(O)cc4)c3C(N)=O)cc2)c1 [reference compound] yields pKd of > 7.30
